Molecular target: TSLP (Homo sapiens, UniProt Q969D9)
Sequence (Q969D9 29-159): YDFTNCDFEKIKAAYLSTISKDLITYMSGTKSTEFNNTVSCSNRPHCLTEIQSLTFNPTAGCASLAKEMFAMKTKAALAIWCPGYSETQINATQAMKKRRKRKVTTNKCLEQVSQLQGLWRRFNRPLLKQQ
Assay: Human peripheral blood mononuclear cell assay (TSLP-induced CCL17/TARC)
Format: cell-based
Parameters: host or cells: added to human PBMCs from healthy donors
Details: read-out: CCL17 % Inhibition @ 10 μM, […] TSLP
In this section, each of the compounds is paired with its reported inhibition at 10 µM.
Report the value in % with no unit label.

Solved entries (count: 5):
Compound: CC(=O)N[C@H]1CSCCC(=O)N2CN3CN(C2)C(=O)CCSC[C@H](NC(=O)[C@H](CC(=O)O)NC(=O)[C@H](CCC(=O)O)NC(=O)[C@H](CC(C)C)NC(=O)[C@H](Cc2c[nH]c4ccccc24)NC(=O)[C@H](CCC(N)=O)NC1=O)C(=O)N[C@@H](Cc1c[nH]c2ccccc12)C(=O)N[C@@H](CCCNC(=N)N)C(=O)NCC(=O)N[C@@H](Cc1cccc2ccccc12)C(=O)N[C@H](C(N)=O)CSCCC3=O [Example 47, Ac-(SEQ ID NO: 41)]
Assay Target: TSLP (Homo sapiens, UniProt Q969D9)
Units Label: %
inhibition at 10 µM: -7
//
Compound: CC(=O)N[C@H]1CSCCC(=O)N2CN3CN(C2)C(=O)CCSC[C@H](NC(=O)[C@H](CC(=O)O)NC(=O)[C@H](CCC(=O)O)NC(=O)[C@H](CC(C)C)NC(=O)[C@H](Cc2c[nH]c4ccccc24)NC(=O)[C@H](CCC(N)=O)NC1=O)C(=O)N[C@@H](Cc1c[nH]c2ccccc12)C(=O)N[C@@H](CCCNC(=N)N)C(=O)NCC(=O)N[C@@H](Cc1ccc(Cl)c(Cl)c1)C(=O)N[C@H](C(N)=O)CSCCC3=O [Example 11, Ac-(SEQ ID NO: 9)]
Assay Target: TSLP (Homo sapiens, UniProt Q969D9)
Units Label: %
inhibition at 10 µM: 43
//
Compound: CC(=O)N[C@H]1CSCCC(=O)N2CN3CN(C2)C(=O)CCSC[C@H](NC(=O)[C@H](CC(=O)O)NC(=O)[C@H](CCC(=O)O)NC(=O)[C@H](CC(C)C)NC(=O)[C@H](Cc2c[nH]c4ccccc24)NC(=O)[C@H](CCC(N)=O)NC1=O)C(=O)N[C@@H](Cc1c[nH]c2ccccc12)C(=O)N[C@@H](CCCNC(=N)N)C(=O)NCC(=O)N[C@@H](Cc1cccc(C)c1)C(=O)N[C@H](C(N)=O)CSCCC3=O [Example 74, Ac-(SEQ ID NO: 55)]
Assay Target: TSLP (Homo sapiens, UniProt Q969D9)
Units Label: %
inhibition at 10 µM: 43
//
Compound: CC(C)C[C@@H]1NC(=O)[C@H](Cc2c[nH]c3ccccc23)NC(=O)[C@H](CCC(N)=O)NC(=O)[C@@H](NC(=O)[C@H](C)N)CSCCC(=O)N2CN3CN(C2)C(=O)CCSC[C@H](NC(=O)[C@H](CC(=O)O)NC(=O)[C@H](CCC(=O)O)NC1=O)C(=O)N[C@@H](Cc1c[nH]c2ccccc12)C(=O)N[C@@H](CCCNC(=N)N)C(=O)NCC(=O)N[C@@H](Cc1ccccc1)C(=O)N[C@H](C(=O)N[C@@H](C)C(N)=O)CSCCC3=O [Example 68, A-(SEQ ID NO: 38)-A]
Assay Target: TSLP (Homo sapiens, UniProt Q969D9)
Units Label: %
inhibition at 10 µM: 33
//
Compound: CC(=O)N[C@H]1CSCCC(=O)N2CN3CN(C2)C(=O)CCSC[C@H](NC(=O)[C@H](CC(=O)O)NC(=O)[C@H](CCC(=O)O)NC(=O)[C@H](CC(C)C)NC(=O)[C@H](Cc2c[nH]c4ccccc24)NC(=O)[C@H](CCC(N)=O)NC1=O)C(=O)N[C@@H](Cc1c[nH]c2ccccc12)C(=O)N[C@@H](CCCNC(=N)N)C(=O)NCC(=O)N[C@@H](Cc1ccc2ccccc2c1)C(=O)N[C@H](C(N)=O)CSCCC3=O [Example 50, Ac-(SEQ ID NO: 42)]
Assay Target: TSLP (Homo sapiens, UniProt Q969D9)
Units Label: %
inhibition at 10 µM: 33

[Q] Fill in inhibition at 10 µM for record CC(=O)N[C@H]1CSCCC(=O)N2CN3CN(C2)C(=O)CCSC[C@H](NC(=O)[C@H](CC(=O)O)NC(=O)[C@H](CCC(=O)O)NC(=O)[C@H](CC(C)C)NC(=O)[C@H](Cc2c[nH]c4ccccc24)NC(=O)[C@H](CCC(N)=O)NC1=O)C(=O)N[C@@H](Cc1c[nH]c2ccccc12)C(=O)N[C@@H](CCCNC(=N)N)C(=O)NCC(=O)N[C@@H](Cc1cccc(Cl)c1)C(=O)N[C@H](C(N)=O)CSCCC3=O [Example 32, Ac-(SEQ ID NO: 29)]
[A] 14

---

Target: TSLP (Homo sapiens)
Assay: Human TSLP Surface Plasmon Resonance (SPR) binding assay
Settings: biotinylated human TSLP immobilized on streptavidin chip; 20° C.; steady-state or kinetic 1:1 fit; read-out: hTSLP SPR Kd
In this section, each of the compounds is paired with its reported Kd.
Report the value in nM with no unit label.

Compound: CC(=O)N[C@H]1CSCCC(=O)N2CN3CN(C2)C(=O)CCSC[C@H](NC(=O)[C@H](CC(=O)O)NC(=O)[C@H](CCC(=O)O)NC(=O)[C@H](CC(C)C)NC(=O)[C@H](Cc2c[nH]c4ccccc24)NC(=O)[C@H](CCC(N)=O)NC1=O)C(=O)N[C@@H](Cc1c[nH]c2ccccc12)C(=O)N[C@@H](CCCNC(=N)N)C(=O)NCC(=O)N[C@@H](Cc1cccc(C)c1)C(=O)N[C@H](C(N)=O)CSCCC3=O [Example 74, Ac-(SEQ ID NO: 55)]
Kd [nM]: 91

Shift focus to the following entry.
[Q] Fill in Kd for record CC(=O)N[C@@H](C)C(=O)N[C@H]1CSCCC(=O)N2CN3CN(C2)C(=O)CCSC[C@@H](C(=O)N2CCC[C@H]2C(=O)N[C@@H](CC(C)C)C(=O)N[C@@H](CC(=O)O)C(N)=O)NC(=O)[C@H](Cc2ccccc2)NC(=O)CNC(=O)[C@H](CCCNC(=N)N)NC(=O)[C@H](Cc2c[nH]c4ccccc24)NC(=O)[C@H](CSCCC3=O)NC(=O)[C@H](CC(=O)O)NC(=O)[C@H](CCC(=O)O)NC(=O)[C@H](CC(C)C)NC(=O)[C@H](Cc2c[nH]c3ccccc23)NC(=O)[C@H](CCC(N)=O)NC1=O [Example 53, Ac-A-(SEQ ID NO: 38)-PLD]
[A] 43

---

Biological target: UniProt:Q969D9
Assay: Human TSLP Surface Plasmon Resonance (SPR) binding assay
Settings: biotinylated human TSLP immobilized on streptavidin chip; 20° C.; steady-state or kinetic 1:1 fit; read-out: hTSLP SPR Kd
The threshold is 90 nM. Values of Kd beneath it are tagged true; values meeting or exceeding it are tagged false.

Compound: CC(=O)N[C@H]1CSCCC(=O)N2CN3CN(C2)C(=O)CCSC[C@H](NC(=O)[C@H](CC(=O)O)NC(=O)[C@H](CCC(=O)O)NC(=O)[C@H](CC(C)C)NC(=O)[C@H](Cc2c[nH]c4ccccc24)NC(=O)[C@H](CCC(N)=O)NC1=O)C(=O)N[C@@H](Cc1c[nH]c2ccccc12)C(=O)N[C@@H](CCCC[N+](C)(C)C)C(=O)NCC(=O)N[C@@H](Cc1ccccc1)C(=O)N[C@H](C(N)=O)CSCCC3=O [Example 81, Ac-(SEQ ID NO: 61)]
Class Name: false

[Q] Dear reviewer, please state whether CC(C)C[C@@H]1NC(=O)[C@H](Cc2c[nH]c3ccccc23)NC(=O)[C@@H]2CSCCC(=O)N3CN(CN(C3)C(=O)CCSC[C@@H](C(=O)N[C@@H](C)C(N)=O)NC(=O)[C@H](CO)NC1=O)C(=O)CCSC[C@H](NC(=O)[C@H](C)N)C(=O)N[C@@H](CC(=O)O)C(=O)N[C@@H](Cc1c[nH]c3ccccc13)C(=O)N[C@@H](Cc1c[nH]cn1)C(=O)N[C@@H](Cc1c[nH]c3ccccc13)C(=O)N[C@@H](CCC(=O)O)C(=O)N[C@@H](Cc1ccc(O)cc1)C(=O)N[C@@H](CC(=O)O)C(=O)N2 [Example 199, A-(SEQ ID NO: 144)-A] has Kd strictly beneath 90 nM.
[A] true

[Q] Dear reviewer, please state whether CC(=O)N[C@H]1CSCCC(=O)N2CN3CN(C2)C(=O)CCSC[C@H](NC(=O)[C@H](CC(=O)O)NC(=O)[C@H](CCC(=O)O)NC(=O)[C@H](CC(C)C)NC(=O)[C@H](Cc2c[nH]c4ccccc24)NC(=O)[C@H](CCC(N)=O)NC1=O)C(=O)N[C@@H](Cc1c[nH]c2ccccc12)C(=O)N[C@@H](CCONC(=N)N)C(=O)NCC(=O)N[C@@H](Cc1ccccc1)C(=O)N[C@H](C(N)=O)CSCCC3=O [Example 131, Ac-(SEQ ID NO: 92)] has Kd strictly beneath 90 nM.
[A] false

[Q] Dear reviewer, please state whether CC(=O)N[C@H]1CSCCC(=O)N2CN3CN(C2)C(=O)CCSC[C@H](NC(=O)[C@H](CC(=O)O)NC(=O)[C@H](CCC(=O)O)NC(=O)[C@H](CC(C)C)NC(=O)[C@H](Cc2c[nH]c4ccccc24)NC(=O)[C@H](CCC(N)=O)NC1=O)C(=O)N[C@@H](Cc1c[nH]c2ccccc12)C(=O)N[C@@H](CCCNC(=N)N)C(=O)NCC(=O)N[C@@H](Cc1cccs1)C(=O)N[C@H](C(N)=O)CSCCC3=O [Example 135, Ac-(SEQ ID NO: 96)] has Kd strictly beneath 90 nM.
[A] false

[Q] Dear reviewer, please state whether CC(=O)N[C@H]1CSCCC(=O)N2CN3CN(C2)C(=O)CCSC[C@H](NC(=O)[C@H](CC(=O)O)NC(=O)[C@H](CCC(=O)O)NC(=O)[C@H](CC(C)C)NC(=O)[C@H](Cc2c[nH]c4ccccc24)NC(=O)[C@H](CCC(N)=O)NC1=O)C(=O)N[C@@H](Cc1c[nH]c2ccccc12)C(=O)N[C@@H](CCCNC(=N)N)C(=O)NCC(=O)N[C@@H](Cc1ccc(C(F)(F)F)cc1)C(=O)N[C@H](C(N)=O)CSCCC3=O [Example 77, Ac-(SEQ ID NO: 58)] has Kd strictly beneath 90 nM.
[A] false
